- Test system: ATF4
- assayOverview: ATF4 expression inhibition assay (ATF4 5'UTR luciferase reporter, Tg-stressed HEK293T cells)
- Type: cell-based, human
- experimentalParameters: Homo sapiens, HEK-293T, 3 h, 100 nM test compound, 100 nM thapsigargin, 3 hours, HEK293T ATF4 luciferase reporter; read-out: % ATF4 inhibition at 100 nM
readoutKind: inhibition at 0.1 µM (%)

1. COc1ccc2oc(C(=O)NN3CCC(NC[C@@H](O)COc4ccc(Cl)c(F)c4)CC3)cc2c1 | 37
2. O=C(NN1CCN(C[C@H](O)COc2ccc(Cl)c(F)c2)CC1)c1cc2cc(Cl)ccc2o1 | 55.4
3. O=C(NN1CCN(C[C@@H](O)COc2ccc(Cl)c(F)c2)CC1)c1ccc(Cl)cc1 | 14.8
4. O=C(COc1ccc(Cl)c(F)c1)NC1CCN(NC(=O)C2CNc3cc(Cl)ccc3O2)CC1 (stereo not drawn) | 94.8
5. O=C(NC1CCN(NCC(O)COc2ccc(Cl)c(F)c2)CC1)c1cc2cc(Cl)ccc2o1 (stereo not drawn) | 37.5
6. O=C(NN1CCN(C[C@@H](O)COc2ccc(Cl)c(F)c2)CC1)c1ccc(Cl)cn1 | 20
7. O=C(COc1ccc(Cl)c(F)c1)NC1CCN(NC(=O)C2Cc3cc(Cl)ccc3O2)CC1 (stereo not drawn) | 67.8
8. O=C(COc1ccc(Cl)c(F)c1)NN1CCC(NC(=O)c2ccc3cc(Cl)ccc3n2)CC1 | 88.1
9. O=C(COc1ccc(Cl)c(F)c1)NN1CCC(NC[C@@H](O)COc2ccc(Cl)c(F)c2)CC1 (single isomer, unassigned) | 75.3
10. O=C(NN1CCN(C[C@@H](O)COc2ccc(Cl)c(F)c2)CC1)c1cnc(C(F)F)cn1 | 0
11. O=C(COc1ccc(C(F)(F)F)cc1)NC1CCN(NC(=O)COc2ccc(C(F)(F)F)cc2)CC1 | 92.1
12. O=C(COc1ccc(Cl)c(F)c1)NN1CCN(C[C@@H](O)COc2ccc(Cl)c(F)c2)CC1 (single isomer, unassigned) | 97.2

----------
- Tested on: ATF4
- assayOverview: ATF4 expression inhibition assay (ATF4 5'UTR luciferase reporter, Tg-stressed HEK293T cells)
- Type: cell-based, human
- experimentalParameters: Homo sapiens, HEK-293T, 3 h, 1 μM test compound, 100 nM thapsigargin, 3 hours, HEK293T ATF4 luciferase reporter; read-out: % ATF4 inhibition at 1 μM
Decide using inhibition at 1 µM: a value greater than or equal to 90% is fulfilled, a smaller one is not fulfilled.

1) O=C(NN1CCC(NC[C@@H](O)COc2ccc(Cl)c(F)c2)CC1)c1ccc(Cl)cn1 [Compound 68] | not fulfilled
2) O=C(COc1ccc(Cl)c(F)c1)NC1CCN(NC(=O)c2cc3cc(Cl)ccc3o2)CC1 [Compound 2] | fulfilled
3) O=C(COc1ccc(Cl)c(F)c1)NN1CCC(NC[C@@H](O)COc2ccc(Cl)c(F)c2)CC1 (single isomer, unassigned) [Compound 52] | not fulfilled
4) O=C(NN1CCN(C[C@H](O)COc2ccc(Cl)c(F)c2)CC1)c1ccc2cc(Cl)ccc2n1 [Compound 59] | not fulfilled
5) O=C(COc1ccc(Cl)c(F)c1)NC1CCN(NC(=O)c2ccc3cc(Cl)ccc3n2)CC1 [Compound 1] | fulfilled
6) N#Cc1ccc(C(=O)NN2CCN(C[C@@H](O)COc3ccc(Cl)c(F)c3)CC2)nc1 [Compound 67] | not fulfilled
